experiment: PK protocol (intravenous and oral administration)
Type: in vivo, male Sprague Dawley rats
run.parameters: male, Sprague Dawley, plasma; rat, intravenous, dose 2.41 mg/kg
assay.endpoint: AUC (ng·h/mL)
Record the value in ng·h/mL, omitting the unit from your answer.

Problem: Consider the molecule CN(CCO)C(=O)c1cc(S(=O)(=O)NC(=O)Nc2c3c(cc4c2CCC4)CCC3)nn1C [Example 59] and give its recorded AUC.
Result: 787

---

experiment: PK protocol (intravenous and oral administration)
Type: in vivo, male Sprague Dawley rats
run.parameters: male, Sprague Dawley, plasma; rat, intravenous, dose 2.99 mg/kg; read-out: Vdss
assay.endpoint: Vd
Answer shape: numeric part, then the unit.

Problem: Consider the molecule CCn1nc(S(=O)(=O)NC(=O)Nc2c3c(cc4c2CCC4)CCC3)cc1C1(OC)COC1 and give its recorded Vd.
Result: 1.11 L/kg
